test system: Escherichia coli TOP10; test: shrunken log2 fold change of peptide-encoding DNA abundance (4.5 h post-induction vs induction); higher = less antimicrobial activity (less host growth inhibition); conditions: time post-induction: 4.5 h; library: site-saturation at positions 5, 18, 19, 20
shrunken log2 fold change below -0.2 gives F; shrunken log2 fold change at or above it gives T.

The following sequences have reported results that may help.
{"sequence_input": "RRIRARPPRLPRPRPRPHMPPRP", "label_value": "F"}
{"sequence_input": "RRIRQRPPRLPRPRPRPPPFPRP", "label_value": "T"}
{"sequence_input": "RRIRCRPPRLPRPRPRPYTCPRP", "label_value": "F"}
{"sequence_input": "RRIRHRPPRLPRPRPRPSVNPRP", "label_value": "T"}
{"sequence_input": "RRIRDRPPRLPRPRPRPGHKPRP", "label_value": "T"}
{"sequence_input": "RRIRMRPPRLPRPRPRPFPTPRP", "label_value": "T"}
{"sequence_input": "RRIRFRPPRLPRPRPRPHIHPRP", "label_value": "F"}
{"sequence_input": "RRIRERPPRLPRPRPRPGGYPRP", "label_value": "F"}

Incoming: In plain terms: is recorded shrunken log2 fold change at least -0.2 for `RRIRTRPPRLPRPRPRPSLRPRP` ?
Outgoing: F

Incoming: Ok, now `RRIRLRPPRLPRPRPRPREPPRP`
Outgoing: T

Incoming: Ok, now `RRIRCRPPRLPRPRPRPNYGPRP`
Outgoing: F

Incoming: Ok, now `RRIRERPPRLPRPRPRPAWGPRP`
Outgoing: T

Incoming: Ok, now `RRIRDRPPRLPRPRPRPWAGPRP`
Outgoing: T

Incoming: Ok, now `RRIRQRPPRLPRPRPRPERHPRP`
Outgoing: T

====

tested on: Escherichia coli TOP10; experiment: shrunken log2 fold change of peptide-encoding DNA abundance (4.5 h post-induction vs induction); higher = less antimicrobial activity (less host growth inhibition); details: time post-induction: 4.5 h; library: site-saturation at positions 5, 18, 19, 20
shrunken log2 fold change below 0.2 gives NO; shrunken log2 fold change at or above it gives YES.

The following sequences have reported results that may help.
{"sequence_input": "RRIRIRPPRLPRPRPRPMINPRP", "label_value": "NO"}
{"sequence_input": "RRIRMRPPRLPRPRPRPESCPRP", "label_value": "YES"}
{"sequence_input": "RRIRQRPPRLPRPRPRPRTGPRP", "label_value": "YES"}
{"sequence_input": "RRIRSRPPRLPRPRPRPNAPPRP", "label_value": "NO"}
{"sequence_input": "RRIRTRPPRLPRPRPRPWQKPRP", "label_value": "NO"}

Incoming: In plain terms: is recorded shrunken log2 fold change at least 0.2 for `RRIRARPPRLPRPRPRPHGCPRP` ?
Outgoing: NO

Incoming: Ok, now `RRIRSRPPRLPRPRPRPIGRPRP`
Outgoing: NO

====

Record form. Attribute: shrunken log2 fold change. Fill in for each entry.
tested on: Escherichia coli TOP10; test: shrunken log2 fold change of peptide-encoding DNA abundance (4.5 h post-induction vs induction); higher = less antimicrobial activity (less host growth inhibition); settings: time post-induction: 4.5 h; library: site-saturation at positions 5, 18, 19, 20;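 also: peptides expressed intracellularly from a pBAD plasmid library in pooled LB shake-flask culture, induced with 0.3% L-arabinose, DNA abundance read by NGS, three biological replicates, DESeq2 with apeglm shrinkage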
Answers are plain numbers.

Use the examples below as a reference point.
{"sequence_input": "RRIRDRPPRLPRPRPRPVIEPRP", "shrunken log2 fold change": 0.662}
{"sequence_input": "RRIRFRPPRLPRPRPRPWNAPRP", "shrunken log2 fold change": -0.84}
{"sequence_input": "RRIRLRPPRLPRPRPRPREFPRP", "shrunken log2 fold change": 0.463}
{"sequence_input": "RRIRRRPPRLPRPRPRPGDCPRP", "shrunken log2 fold change": 0.336}
{"sequence_input": "RRIRNRPPRLPRPRPRPHRIPRP", "shrunken log2 fold change": -0.0314}

The following sequences each have a reported value; give each one's shrunken log2 fold change.
1. RRIRVRPPRLPRPRPRPHGIPRP
2. RRIRQRPPRLPRPRPRPHSHPRP
3. RRIRERPPRLPRPRPRPNARPRP
4. RRIRQRPPRLPRPRPRPCEMPRP
5. RRIRVRPPRLPRPRPRPAQTPRP
6. RRIRKRPPRLPRPRPRPYYRPRP

Outgoing:
[0.00955, 0.0496, -0.0167, -0.00121, 0.442, -0.827]

The following sequences each have a reported value; give each one's shrunken log2 fold change.
1. RRIRQRPPRLPRPRPRPLRQPRP
2. RRIRVRPPRLPRPRPRPHALPRP
3. RRIRMRPPRLPRPRPRPFKYPRP
4. RRIRERPPRLPRPRPRPVNNPRP

Outgoing:
0.0855
-0.129
-0.164
-0.871
